target: SARS-CoV-2 3CL^pro (Severe acute respiratory syndrome coronavirus 2); assay: biochemical; assay type: biochemical; conditions: FRET assay; read-out: SARS-CoV-2 3CL^pro Inhibition IC50
pIC50: −log10 of the molar value.
MEASUREMENT TYPE: pIC50

Would you please look over these solved cases?
> print(dat)
                                   molecule  observed
1  COc1cc(OC(=O)c2ccccc2)c2c(c1)O[C@H](c1ccccc1)CC2=O [Compound 27, 5-O-benzoylpinostrobin]    < 4.00
2  C=CC(=O)Oc1cc(OC(=O)C=C)c2c(=O)cc(-c3ccccc3)oc2c1 [Compound 21, 5,7-O-diacryloylchrysin]    < 4.00
3  COc1cc(O)c2c(c1N)O[C@H](c1ccccc1)CC2=O [Compound 25, 8-aminopinostrobin]    < 4.00

# context switch: different molecule, same pIC50
Q. Could you please provide reported pIC50 for O=C(Oc1cc(O)c2c(c1)O[C@H](c1ccccc1)CC2=O)c1cc(O)c(O)c(O)c1 [Compound 36, 7-O-galloylpinocembrin] ? Thanks!
A. 5.12

---

biological target: UniProt P0DTD1; assay: biochemical; assay type: biochemical
pIC50: −log10 of the molar value.
Overview of reported pIC50 across a group of compounds:

> print(dat)
                                   compound  measurement.type  observed
1  COc1c([N+](=O)[O-])c(O)c2c(c1[N+](=O)[O-])O[C@H](c1ccccc1)CC2=O [Compound 24, 6,8-dinitropinostrobin]             pIC50    < 4.00

Attention now turns to another entry.
Q. Give reported pIC50 value for O=C(O)c1cc(O)c(O)c(O)c1 [gallic acid, reference compound]
A. < 4.00

---

Listed here are compounds together with their documented pIC50.
biological target: SARS-CoV-2 3CL^pro (Severe acute respiratory syndrome coronavirus 2); test: biochemical; type: biochemical; details: FRET assay; read-out: SARS-CoV-2 3CL^pro Inhibition IC50
Scale for pIC50: -log10 of concentration given in mol/L; no unit attached.

> print(dat)
                                  structure  observed
1  COc1cc(OC(=O)c2cc(O)c(O)c(O)c2)c2c(=O)cc(-c3ccccc3)oc2c1      4.69
2  O=C(Oc1cc(O)c2c(=O)cc(-c3ccccc3)oc2c1)c1cc(O)c(O)c(O)c1      5.03

Lab note: next compound to report on.
Q. Note down pIC50 recorded for COc1c(C)c(OC(=O)c2cc(O)c(O)c(O)c2)c(C)c(O)c1C(=O)/C=C/c1ccccc1
A. 5.16

---

Form field: inhibition at 100 µM (one value per entry).
biological target: SARS-CoV-2 3CL^pro (Severe acute respiratory syndrome coronavirus 2); test: biochemical; assay type: biochemical; conditions: 100 µM compound; FRET assay; read-out: SARS-CoV-2 3CL^pro Inhibition 100 µM (%)

Take a look at these entries with their results.
> print(dat)
                                   compound      measurement.type  observed
1  O=C(Oc1cc(O)c2c(c1)O[C@H](c1ccccc1)CC2=O)c1cc(O)c(O)c(O)c1 [Compound 36, 7-O-galloylpinocembrin]  inhibition at 100 µM     > 99%
2  COc1cc(OC(=O)c2cc(O)c(O)c(O)c2)cc(O)c1C(=O)/C=C/c1ccccc1 [Compound 38, 4′-O-galloylcardamonin]  inhibition at 100 µM     > 99%
3  C=CC(=O)Oc1cc(OC)cc2oc(-c3ccccc3)cc(=O)c12 [Compound 19, 5-O-acryloyltectochrysin]  inhibition at 100 µM     37.2%

Lab note: next compound to report on.
Q. For COc1cc(OC(=O)c2cc(O)c(O)c(O)c2)c2c(c1)O[C@H](c1ccccc1)CC2=O [Compound 31, 5-O-galloylpinostrobin] , write its inhibition at 100 µM.
A. > 99%
